- STUDY SYSTEM: recombinant SARS-CoV-2 spike S1 RBD (R319-F541), C-terminal 6-His (SARS-CoV-2, UniProt P0DTC2 319-541)
- ASSAY EXPLANATION: flow cytometry, blocking of binding to hACE-2 cells
Catalogue of percent blocking readings, one per entry.

BINDER | percent blocking [%]
1035423 (antibody, V domains shown) VH: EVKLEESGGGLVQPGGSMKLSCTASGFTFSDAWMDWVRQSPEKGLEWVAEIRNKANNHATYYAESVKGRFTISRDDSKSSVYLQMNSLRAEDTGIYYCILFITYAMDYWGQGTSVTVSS VL: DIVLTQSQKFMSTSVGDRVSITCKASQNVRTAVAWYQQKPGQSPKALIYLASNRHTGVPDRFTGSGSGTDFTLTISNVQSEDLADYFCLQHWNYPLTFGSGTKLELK | 94.1
1035752 (antibody, V domains shown) VH: QVQLQQPGAELVRPGASVKMSCKASGYTFTSHSIHWVKQTPGQGLEWIGAVYPGNGDTSYYQKFKGKATLTADKSSSTAYMHLSSLTSEDSAVYYCARDGYSDYYAMDCWGQGTSVTVSS VL: DIVMTQSQKFMSTSVGDRVSVTCKASQNVGTNVAWYQQKPGQSPKALIYSASYRYSGVPDRFTGSGSGTDFTLTINNVQSEDLAEYFCQQYNRYPWTFGGGTKLEIK | 94.5
